- TESTED_SYSTEM: RNA-binding protein 39 [150-331]/DDB1- and CUL4-associated factor 15 (Homo sapiens, UniProt Q14498+Q66K64)
- Construct: 150-331
- Sequence (Q66K64 whole entry): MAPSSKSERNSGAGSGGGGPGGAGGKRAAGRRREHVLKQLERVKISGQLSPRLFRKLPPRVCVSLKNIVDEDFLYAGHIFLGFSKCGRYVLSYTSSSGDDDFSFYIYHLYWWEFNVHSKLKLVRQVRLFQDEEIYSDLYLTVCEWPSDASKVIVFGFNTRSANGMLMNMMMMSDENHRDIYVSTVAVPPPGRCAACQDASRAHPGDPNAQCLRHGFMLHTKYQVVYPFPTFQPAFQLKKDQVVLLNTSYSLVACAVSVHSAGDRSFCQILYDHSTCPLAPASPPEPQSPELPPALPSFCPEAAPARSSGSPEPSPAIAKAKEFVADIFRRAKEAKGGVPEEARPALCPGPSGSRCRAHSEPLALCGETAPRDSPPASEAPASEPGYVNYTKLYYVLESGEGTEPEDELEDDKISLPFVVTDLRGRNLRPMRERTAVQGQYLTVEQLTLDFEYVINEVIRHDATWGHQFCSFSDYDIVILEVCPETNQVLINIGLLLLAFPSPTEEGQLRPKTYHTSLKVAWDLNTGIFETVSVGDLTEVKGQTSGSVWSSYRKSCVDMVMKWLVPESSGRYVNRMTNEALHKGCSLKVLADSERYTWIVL
- Sequence (Q14498 150-331): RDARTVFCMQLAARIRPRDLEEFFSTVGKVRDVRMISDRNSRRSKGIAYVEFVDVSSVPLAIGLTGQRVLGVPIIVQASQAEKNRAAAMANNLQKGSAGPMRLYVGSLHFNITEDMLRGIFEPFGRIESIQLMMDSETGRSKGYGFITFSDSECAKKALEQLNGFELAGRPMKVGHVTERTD
- TEST_SUMMARY: TR-FRET Assay
MEASURED_QUANTITY: EC50 (nM)
Answer with a number only, understood to be in nM.

query: What does the record list as EC50 for Cc1ccc(NS(=O)(=O)c2ncc(C(F)(F)F)s2)c2[nH]cc(C#N)c12 ?
result: 1090
